ASSAY_PROCEDURE: Test for concentration in blood (plasma of mouse, bioassay)
Assay type: in vivo
STATED_CONDITIONS: sc, subcutaneous, 2 mg/mouse, average on five mice, read-out: Half period (period that elapsed until the concentration was reduced to half)
OBSERVATION_TYPE: half-life (min)
Answers are plain numbers, in min.

1) CC(O)[C@H]1C(=O)N2C(C(=O)O)=C(Sc3ccncc3)C[C@H]12 (relative stereo) [Table II r7 R1=-OH R2=[drawing] M=H*] | 18
2) CC(C)C1C(=O)N2C(C(=O)O)=C(SCCN(C)C)CC12 (centres unmarked) [R1=-CH3 R2=-CH2CH2N(CH3)2 M=H] | 6.1
3) CC(C)C1C(=O)N2C(C(=O)O)=C(Sc3ccncc3)CC12 (centres unmarked) [Table II r6 R1=-CH3 R2=[drawing] M=H] | 15.2

Please report half-life for every entry that follows.
1. CC(C)C1C(=O)N2C(C(=O)O)=C(Sc3ncccn3)CC12 (centres unmarked) [Table II r11 R1=-CH3 R2=[drawing] M=H]
2. CCC1C(=O)N2C(C(=O)O)=C(SCCN(C)C)CC12 (centres unmarked) [R1=H R2=-CH2CH2N(CH3)2 M=H]
3. CCC1C(=O)N2C(C(=O)O)=C(SCCO)CC12 (centres unmarked) [R1=H R2=-CH2CH2OH M=Na]
4. CCC1C(=O)N2C(C(=O)O)=C(SC3CCCCC3)CC12 (centres unmarked) [Table II r14 R1=H R2=[drawing] M=Na]
5. CC(=O)NCCSC1=C(C(=O)O)N2C(=O)C(C(C)O)C2C1 (centres unmarked) [PS-3B.Na, reference compound]

Response line:
1. 18.2
2. 6
3. 6
4. 7.2
5. 5
